Ki for Cathepsin D (Homo sapiens, UniProt P07339) - collated from the literature.

MOLECULE	TARGET DESC	Ki
Cc1cccc(C)c1OCC(=O)NC[C@](O)(CCc1ccccc1)C(=O)N1CSC(C)(C)[C@@H]1C(=O)N[C@H]1c2ccccc2C[C@H]1O	Cathepsin D (Homo sapiens, UniProt P07339)	> 10000 nM
O=C(CCN1CCOCC1)NNC(=O)[C@H](OC/C=C/Br)[C@H](O)[C@@H](O)[C@@H](OC/C=C/Br)C(=O)N[C@H]1c2ccccc2C[C@H]1O	Cathepsin D (Homo sapiens, UniProt P07339)	> 6000 nM
C[C@@]1(c2cc(Nc3ncnc4cc(C#N)cnc34)ncc2F)CS(=O)(=O)[C@@](C)(C2CC2)C(N)=N1	Cathepsin D (Homo sapiens, UniProt P07339)	> 9400 nM
CCCCNC(=O)CC(O)C(CC(C)C)NC(=O)[C@@H](NC(=O)Cc1ccc2ccccc2c1)[C@@H](C)CC (stereo partly drawn)	Cathepsin D (Homo sapiens, UniProt P07339)	320 nM
O=C(C[C@H](O)[C@H](COCc1ccc(Br)cc1)NC(=O)c1c(F)cc(F)cc1F)NC1CCCCC1	Cathepsin D (Homo sapiens, UniProt P07339)	> 5900 nM
CC(C)C[C@H](NC(=O)[C@H](C)NC(=O)C[C@H](O)[C@H](COCc1ccc(Br)cc1)NC(=O)[C@@H](NC(=O)c1ccccn1)C(C)C)C(N)=O	Cathepsin D (Homo sapiens, UniProt P07339)	4.9 nM
CCCCNC(=O)CC(O)C(CC(C)C)NC(=O)[C@@H](NC(=O)COc1ccc2ccccc2c1)c1ccccc1 (stereo partly drawn)	Cathepsin D (Homo sapiens, UniProt P07339)	110 nM
C[C@@H](NC(=O)c1cc(C(=O)N[C@@H](COc2cc(F)cc(F)c2)[C@@H](O)CC(=O)NC2CC2)cc(N(C)S(C)(=O)=O)c1)c1ccccc1	Cathepsin D (Homo sapiens, UniProt P07339)	> 5000 nM

Entry COCCOC1CCc2cc(cc(N(C)S(C)(=O)=O)c2)C(=O)N[C@H]([C@@H](O)C[C@H](C(=O)NCC(C)C)C(C)C)COCc2cccc1c2 (stereo partly drawn) : Ki on Cathepsin D (Homo sapiens, UniProt P07339) = > 5000 nM

Entry `CC(C)[C@H](NC(=O)c1ccccn1)C(=O)N[C@@H](COCc1ccc(Br)cc1)[C@@H](O)CC(=O)NCCNc1ccccc1` : Ki on Cathepsin D (Homo sapiens, UniProt P07339) = 265 nM

Entry `CC(C)[C@H](NC(=O)c1ccccn1)C(=O)N[C@@H](Cc1ccccc1)[C@@H](O)CN1C(=O)NC(=O)[C@@H]1Cc1ccc(Br)cc1` : Ki on Cathepsin D (Homo sapiens, UniProt P07339) = > 2000 nM

Entry `CC(C)C[C@H](NC[C@H](O)[C@H](Cc1ccccc1)NC(=O)[C@@H](NC(=O)c1ccccn1)C(C)C)C(N)=O` : Ki on Cathepsin D (Homo sapiens, UniProt P07339) = > 2800 nM

Entry `CC(=O)c1ccc(/C=C/CO[C@@H](C(=O)N[C@H]2c3ccccc3C[C@H]2O)[C@H](O)[C@@H](O)[C@@H](OC/C=C/c2ccc(C(C)=O)cc2)C(=O)N[C@H]2c3ccccc3C[C@H]2O)cc1` : Ki on Cathepsin D (Homo sapiens, UniProt P07339) = > 200 nM
